# protocol-text: small-molecule binders of probe aNOTCH3, primary screen, biochemical, small-molecule microarray, 635/667 nm fluorescence (AID 1120);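 further: probe is a biotin-tagged antibody raised against NOTCH3 rather than NOTCH3 protein; score merges spot fluorescence near 667 nm with spot signal to noise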
# assay-setup: higher = more signal
Use 0.06 as the dividing line for composite z-score, with the line itself on the met side and lower values as not met.

Here are 3 molecules together with their reported answers.
>  <molecule>
CON=C(C)CCC(=O)OC[C@H]1O[C@H](C#Cc2ccccc2)C=C[C@@H]1Oc1ccc(C)cc1

>  <category>
not met

$$$$
>  <molecule>
CC(CCN1CCc2nc(-c3ccccc3)c(-c3ccccc3)cc2C1)=NO[C@H](C)c1cn([C@H](CO)Cc2ccccc2)nn1

>  <category>
not met

$$$$
>  <molecule>
CCN1C(=O)[C@H]2[C@H]3[C@H](O)[C@H](O)CC(=NOC(C)CN4CCCc5nc(C)c(C)cc54)[C@@H]3CC[C@H]2C1=O (some centres not stated)

>  <category>
met

$$$$

Problem: Check if composite z-score >= 0.06 (inclusive). Item: CC1(C)O[C@H]2OC([C@H](O)CON3C(=O)c4ccccc4C3=O)[C@H](O)[C@H]2O1 (some centres not stated)
Solution: not met

Problem: Also check CCOC(=O)[C@H](Cc1ccccc1)NC(=O)CCC1CC(OC(=O)NCc2cccc3ccccc23)CC2(CCCC(COC(=O)NCCc3ccccc3OC)O2)O1 (some centres not stated)
Solution: met

Problem: What do we get for COC(=O)[C@H](C)NC(=O)CCC1CC(OC(=O)NCc2cccc3ccccc23)CC2(CCCC(COC(=O)NCc3cccc(C(F)(F)F)c3)O2)O1 (some centres not stated) ?
Solution: met
